Tested on: NCI-H520
Experiment: relative viability (nuclei count vs DMSO), 5 days (fraction); higher = more cells survive
Conditions: first compound 0.6325 µM
# relative viability annotations

CN1CCN(CCOc2cc(OC3CCOCC3)c3c(Nc4c(Cl)ccc5c4OCO5)ncnc3c2)CC1 [Saracatinib] + C[C@]1(O)C[C@@H](c2nc(-c3ccc4ccc(-c5ccccc5)nc4c3)c3c(N)nccn32)C1 [Linsitinib] (partner 1 µM)    0.825
CN1CCN(CCOc2cc(OC3CCOCC3)c3c(Nc4c(Cl)ccc5c4OCO5)ncnc3c2)CC1 [Saracatinib] + COc1cc2c(Oc3ccc(NC(=O)C4(C(=O)Nc5ccc(F)cc5)CC4)cc3F)ccnc2cc1OCCCN1CCOCC1 [Foretinib] (partner 0.25 µM)    0.611
CN1CCN(CCOc2cc(OC3CCOCC3)c3c(Nc4c(Cl)ccc5c4OCO5)ncnc3c2)CC1 [Saracatinib] + CS(=O)(=O)CCNCc1ccc(-c2ccc3ncnc(Nc4ccc(OCc5cccc(F)c5)c(Cl)c4)c3c2)o1 [Lapatinib] (partner 2 µM)    0.708
CN1CCN(CCOc2cc(OC3CCOCC3)c3c(Nc4c(Cl)ccc5c4OCO5)ncnc3c2)CC1 [Saracatinib] + COc1cccc2cc(-c3nc([C@H]4CC[C@H](C(=O)O)CC4)n4ncnc(N)c34)[nH]c12 [OSI-027] (partner 0.5 µM)    0.262
CN1CCN(CCOc2cc(OC3CCOCC3)c3c(Nc4c(Cl)ccc5c4OCO5)ncnc3c2)CC1 [Saracatinib] + O=C(c1cc(Cc2n[nH]c(=O)c3ccccc23)ccc1F)N1CCN(C(=O)C2CC2)CC1 [Olaparib] (partner 8 µM)    0.289

Prompt: # input compound: Cc1csc(=NC2CCCCC2)n1/N=C/c1ccc(O)c(O)c1O [MIM1] + Nc1nc2[nH]cc(CCc3ccc(C(=O)N[C@@H](CCC(=O)O)C(=O)O)cc3)c2c(=O)[nH]1 [Pemetrexed] (partner 0.2 µM) ; wanted: its relative viability
Completion: 0.722

Prompt: Consider the compound CN1CCN(CCOc2cc(OC3CCOCC3)c3c(Nc4c(Cl)ccc5c4OCO5)ncnc3c2)CC1 [Saracatinib] + Cc1cc(Nc2cc(N3CCN(C)CC3)nc(Sc3ccc(NC(=O)C4CC4)cc3)n2)n[nH]1 [Tozasertib] (partner 0.1 µM) and give its measured relative viability.
Completion: 0.383

Prompt: Which relative viability is reported for this compound? Cc1csc(=NC2CCCCC2)n1/N=C/c1ccc(O)c(O)c1O [MIM1] + CC(=O)Nc1cccc(-n2c(=O)n(C3CC3)c(=O)c3c(Nc4ccc(I)cc4F)n(C)c(=O)c(C)c32)c1 [Trametinib] (partner 0.02 µM)
Completion: 0.707

Prompt: So what's the measured relative viability for this one? Cc1csc(=NC2CCCCC2)n1/N=C/c1ccc(O)c(O)c1O [MIM1] + O=C(CCCCCCC(=O)Nc1ccccc1)NO [Vorinostat] (partner 1 µM)
Completion: 0.744
